B1: library; a variant is named by its letters at N, in order (parent)
chain: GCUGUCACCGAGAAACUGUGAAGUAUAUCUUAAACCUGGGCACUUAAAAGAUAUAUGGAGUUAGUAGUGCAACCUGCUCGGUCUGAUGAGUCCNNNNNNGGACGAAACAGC

- Variants of: B1
- Method Summary: normalized RNA/DNA level with ligand (relative to sTRSVctl = 100) (log10 (% of sTRSVctl)); HEK293T; ligand: cyclic di-GMP (c-di-GMP-II aptamer); ligand concentration (+) RNA-Seq: 1 mM; higher = less ribozyme self-cleavage, higher mRNA level
- Condition Notes: reporter: mCherry (pCS4076), ligand present: yes
Below: a set of entries, each annotated with reported normalized RNA/DNA level with ligand (log10).
# output: bare number, no unit

Example variants with recorded normalized RNA/DNA level with ligand (log10):
> print(dat)
                            sequence.record  value.measured
1  GCUGUCACCGAGAAACUGUGAAGUAUAUCUUAAACCUGGGCACUUAAAAGAUAUAUGGAGUUAGUAGUGCAACCUGCUCGGUCUGAUGAGUCCUCCAGCGGACGAAACAGC            1.84
2  GCUGUCACCGAGAAACUGUGAAGUAUAUCUUAAACCUGGGCACUUAAAAGAUAUAUGGAGUUAGUAGUGCAACCUGCUCGGUCUGAUGAGUCCAUGUAUGGACGAAACAGC            1.82
3  GCUGUCACCGAGAAACUGUGAAGUAUAUCUUAAACCUGGGCACUUAAAAGAUAUAUGGAGUUAGUAGUGCAACCUGCUCGGUCUGAUGAGUCCAUACCCGGACGAAACAGC            1.89
4  GCUGUCACCGAGAAACUGUGAAGUAUAUCUUAAACCUGGGCACUUAAAAGAUAUAUGGAGUUAGUAGUGCAACCUGCUCGGUCUGAUGAGUCCAUUGAAGGACGAAACAGC            1.66
5  GCUGUCACCGAGAAACUGUGAAGUAUAUCUUAAACCUGGGCACUUAAAAGAUAUAUGGAGUUAGUAGUGCAACCUGCUCGGUCUGAUGAGUCCAUUUCUGGACGAAACAGC            1.87
6  GCUGUCACCGAGAAACUGUGAAGUAUAUCUUAAACCUGGGCACUUAAAAGAUAUAUGGAGUUAGUAGUGCAACCUGCUCGGUCUGAUGAGUCCCAGAAGGGACGAAACAGC            1.86
7  GCUGUCACCGAGAAACUGUGAAGUAUAUCUUAAACCUGGGCACUUAAAAGAUAUAUGGAGUUAGUAGUGCAACCUGCUCGGUCUGAUGAGUCCUUUAGAGGACGAAACAGC            1.87
8  GCUGUCACCGAGAAACUGUGAAGUAUAUCUUAAACCUGGGCACUUAAAAGAUAUAUGGAGUUAGUAGUGCAACCUGCUCGGUCUGAUGAGUCCUAGUGGGGACGAAACAGC            1.84

Ask | Requested field: normalized RNA/DNA level with ligand (log10). Item: GCUGUCACCGAGAAACUGUGAAGUAUAUCUUAAACCUGGGCACUUAAAAGAUAUAUGGAGUUAGUAGUGCAACCUGCUCGGUCUGAUGAGUCCCGAAAAGGACGAAACAGC
Reply | 1.47

Ask | Requested field: normalized RNA/DNA level with ligand (log10). Item: GCUGUCACCGAGAAACUGUGAAGUAUAUCUUAAACCUGGGCACUUAAAAGAUAUAUGGAGUUAGUAGUGCAACCUGCUCGGUCUGAUGAGUCCGAAAAGGGACGAAACAGC
Reply | 1.74

Ask | Param item = GCUGUCACCGAGAAACUGUGAAGUAUAUCUUAAACCUGGGCACUUAAAAGAUAUAUGGAGUUAGUAGUGCAACCUGCUCGGUCUGAUGAGUCCAGGUCGGGACGAAACAGC ; retrieve measured normalized RNA/DNA level with ligand (log10).
Reply | 1.82
